Data origin: ChEMBL document CHEMBL3856231

experiment_notes: Half life in rat liver microsomes by LC/MS/MS analysis
Format: ADME
Let's look at some compounds and their measured half-life.
Enter your answer as a number in min; do not include the unit.

COc1c(Nc2ncc(Cl)c(N[C@H]3[C@@H](C(N)=O)[C@@H]4C=C[C@H]3C4)n2)ccc2c1CCC[C@H](N1CCN(CCO)CC1)C2 :: 15

We next turn to a different compound, shown below.
// half-life value for `COc1c(Nc2ncc(Cl)c(N[C@H]3[C@@H](C(N)=O)[C@@H]4C=C[C@H]3C4)n2)ccc2c1CCC[C@H](N1CCOCC1)C2` : 5

----------
experiment_notes: Volume of distribution in CD-1 mouse at 1 mg/kg, iv by LC/MS/MS analysis
Format: ADME, organism-based
condition_info: in vivo
measurement_kind: Vd (L/kg)
Enter your answer as a number in L/kg; do not include the unit.

// Vd value for `CNC(=O)c1ccccc1Nc1nc(Nc2ccc3c(c2OC)CCC[C@H](N2CCN(CCO)CC2)C3)ncc1Cl` : 2.7
